system: Escherichia coli; assay: Antimicrobial activity against Escherichia coli assessed as reduction in microbial growth by broth micro-dilution method; assay type: functional
Square brackets hold non-standard residues; d marks the D form. Peptide text beside a SMILES is read from it. Gly(N(CH2)2(3-indolyl)) = O=C(O)CNCCc1c[nH]c2ccccc12; N(1-naphthylmethyl)Gly = O=C(O)CNCc1cccc2ccccc12
In this section, each of the compounds is paired with its reported MIC.
Numeric only. Scale: µM

| Compound | Observed property | Assay result |
| --- | --- | --- |
| CC[C@H](C)[C@H](NC(=O)[C@H](CCCNC(=N)N)NC(=O)[C@H](CCCCN)NC(=O)[C@H](CC(C)C)NC(=O)[C@H](CC(C)C)NC(=O)CNCc1cccc2ccccc12)C(=O)N[C@@H](CCCCN)C(=O)N[C@H](C(=O)N[C@@H](CC(C)C)C(=O)N[C@@H](CC(C)C)C(N)=O)[C@@H](C)O (H-[N(1-naphthylmethyl)Gly]LLKRIKTLL-NH2) | MIC | 12.5 |

q: Hi! What's the reported MIC for CC[C@H](C)[C@H](NC(=O)[C@H](CCCNC(=N)N)NC(=O)[C@H](CCCCN)NC(=O)[C@H](CC(C)C)NC(=O)[C@H](CC(C)C)NC(=O)CNCCc1c[nH]c2ccccc12)C(=O)N[C@@H](CCCCN)C(=O)N[C@H](C(=O)N[C@@H](CC(C)C)C(=O)N[C@@H](CC(C)C)C(N)=O)[C@@H](C)O (H-[Gly(N(CH2)2(3-indolyl))]LLKRIKTLL-NH2) on Escherichia coli?
a: 25

---

In this section, each of the compounds is paired with its reported MIC.
test system: Staphylococcus aureus; experiment: Antibacterial activity against Staphylococcus aureus ATCC 25923 assessed as reduction in bacterial cell growth incubated for 16 to 24 hrs by CLSI-protocol based Mueller-Hinton Broth micro-dilution method; format: functional; details: time 16-24 hrs
Peptide text beside a SMILES is read from it. * marks the point of attachment. Lauroyl = CCCCCCCCCCCC(=O)*; Decanoyl = CCCCCCCCCC(=O)*; Octanoyl = CCCCCCCC(=O)*; Hexanoyl = CCCCCC(=O)*; Butyryl = CCCC(=O)*
Numeric only. Scale: µM

The cases that follow already have their MIC on record.
| Compound | Observed property | Readout unit | Assay result |
| --- | --- | --- | --- |
| CCCCCCCCCCCC(=O)NCC(=O)N[C@@H](CC(C)C)C(=O)N[C@@H](CC(C)C)C(=O)N[C@@H](CCCCN)C(=O)N[C@@H](CCCNC(=N)N)C(=O)N[C@H](C(=O)N[C@@H](CCCCN)C(=O)N[C@H](C(=O)N[C@@H](CC(C)C)C(=O)N[C@@H](CC(C)C)C(N)=O)[C@@H](C)O)[C@@H](C)CC (Lauroyl-GLLKRIKTLL-NH2) | MIC | µM | 16 |
| CCCCCCCCCC(=O)NCC(=O)N[C@@H](CC(C)C)C(=O)N[C@@H](CC(C)C)C(=O)N[C@@H](CCCCN)C(=O)N[C@@H](CCCNC(=N)N)C(=O)N[C@H](C(=O)N[C@@H](CCCCN)C(=O)N[C@H](C(=O)N[C@@H](CC(C)C)C(=O)N[C@@H](CC(C)C)C(N)=O)[C@@H](C)O)[C@@H](C)CC (Decanoyl-GLLKRIKTLL-NH2) | MIC | µM | 8 |
| CCCC(=O)NCC(=O)N[C@@H](CC(C)C)C(=O)N[C@@H](CC(C)C)C(=O)N[C@@H](CCCCN)C(=O)N[C@@H](CCCNC(=N)N)C(=O)N[C@H](C(=O)N[C@@H](CCCCN)C(=O)N[C@H](C(=O)N[C@@H](CC(C)C)C(=O)N[C@@H](CC(C)C)C(N)=O)[C@@H](C)O)[C@@H](C)CC (Butyryl-GLLKRIKTLL-NH2) | MIC | µM | 256 |

q: Entry CCCCCCCC(=O)NCC(=O)N[C@@H](CC(C)C)C(=O)N[C@@H](CC(C)C)C(=O)N[C@@H](CCCCN)C(=O)N[C@@H](CCCNC(=N)N)C(=O)N[C@H](C(=O)N[C@@H](CCCCN)C(=O)N[C@H](C(=O)N[C@@H](CC(C)C)C(=O)N[C@@H](CC(C)C)C(N)=O)[C@@H](C)O)[C@@H](C)CC (Octanoyl-GLLKRIKTLL-NH2) has what MIC?
a: 8

q: And then CCCCCC(=O)NCC(=O)N[C@@H](CC(C)C)C(=O)N[C@@H](CC(C)C)C(=O)N[C@@H](CCCCN)C(=O)N[C@@H](CCCNC(=N)N)C(=O)N[C@H](C(=O)N[C@@H](CCCCN)C(=O)N[C@H](C(=O)N[C@@H](CC(C)C)C(=O)N[C@@H](CC(C)C)C(N)=O)[C@@H](C)O)[C@@H](C)CC (Hexanoyl-GLLKRIKTLL-NH2) , what is it?
a: 64
